Provenance of the data: patent US20110217237A1

Documented pEC50 across a set of binders
assayed-system: T1, mouse DLL4 on cells (mouse, UniProt Q9JI71 27-686)
T1 construct: whole, on cells; also called mouse DLL4-293G; mu DLL4 cells
T1 sequence (Q9JI71 27-686): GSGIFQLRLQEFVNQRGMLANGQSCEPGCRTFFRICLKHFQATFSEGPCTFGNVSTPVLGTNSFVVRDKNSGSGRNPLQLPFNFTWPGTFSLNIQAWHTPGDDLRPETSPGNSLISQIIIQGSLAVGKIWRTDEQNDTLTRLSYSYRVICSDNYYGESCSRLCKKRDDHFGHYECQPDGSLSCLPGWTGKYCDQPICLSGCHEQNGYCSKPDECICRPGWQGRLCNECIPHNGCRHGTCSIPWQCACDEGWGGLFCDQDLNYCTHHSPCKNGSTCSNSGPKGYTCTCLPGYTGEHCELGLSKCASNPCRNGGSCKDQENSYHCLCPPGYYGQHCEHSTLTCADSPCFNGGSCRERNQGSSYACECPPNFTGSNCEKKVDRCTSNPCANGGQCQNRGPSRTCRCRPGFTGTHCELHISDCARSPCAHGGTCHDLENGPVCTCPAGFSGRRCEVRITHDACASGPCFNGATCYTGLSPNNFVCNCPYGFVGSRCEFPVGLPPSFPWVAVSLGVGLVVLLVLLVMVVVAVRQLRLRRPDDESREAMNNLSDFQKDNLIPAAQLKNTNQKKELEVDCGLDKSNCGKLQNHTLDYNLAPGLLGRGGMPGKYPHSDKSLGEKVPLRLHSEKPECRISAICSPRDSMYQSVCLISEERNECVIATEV
measurement-notes: FACS, direct binding to DLL4 cells
pEC50: −log10 of the molar value.

{"binder": "h1A11.B4 (antibody, V domains shown, also called h1A11VH.1 / h1A11.B4 VL) VH: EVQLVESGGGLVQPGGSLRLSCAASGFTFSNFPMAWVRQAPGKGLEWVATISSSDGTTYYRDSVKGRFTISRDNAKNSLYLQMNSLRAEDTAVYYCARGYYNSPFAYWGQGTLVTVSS VL: DIQMTQSPSSLSASVGDRVTITCRASQDIYYNLAWYQQKPGKAPKLLIFDTNILADGVPSRFSGSGSGTDFTLTISSLQPEDFATYFCQQYDYVPPTFGQGTKLEIK", "pEC50": 9.18}
{"binder": "h1A11.A7 (antibody, V domains shown, also called h1A11VH.1 / h1A11.A7 VL) VH: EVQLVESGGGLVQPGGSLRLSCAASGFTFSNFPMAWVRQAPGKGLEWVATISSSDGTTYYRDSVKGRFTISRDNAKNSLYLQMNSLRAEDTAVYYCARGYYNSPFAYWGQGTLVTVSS VL: DIQMTQSPSSLSASVGDRVTITCRASQDIYINLAWYQQKPGKAPKLLIFDTSDLADGVPSRFSGSGSGTDFTLTISSLQPEDFATYYCQQYDYYPPTFGQGTKLEIK", "pEC50": 9.20}
{"binder": "h1A11.C6 (antibody, V domains shown, also called h1A11.C6 VH / h1A11VL.1) VH: EVQLVESGGGLVQPGGSLRLSCAASGFTFRNFPMAWVRQAPGKGLEWVATISSSDGWPTYRDSVKGRFTISRDNAKSSLYLQMNSLRAEDTAVYYCSRGYYNSPFAYWGQGTLVTVSS VL: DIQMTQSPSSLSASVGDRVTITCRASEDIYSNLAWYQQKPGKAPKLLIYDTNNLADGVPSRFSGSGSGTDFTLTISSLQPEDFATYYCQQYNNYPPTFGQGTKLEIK", "pEC50": 9.29}
